IC50 values for the molecules below.
- Tgt: BRD3 BD1 WT (Homo sapiens, UniProt Q15059)
- Sequence (Q15059 24-144): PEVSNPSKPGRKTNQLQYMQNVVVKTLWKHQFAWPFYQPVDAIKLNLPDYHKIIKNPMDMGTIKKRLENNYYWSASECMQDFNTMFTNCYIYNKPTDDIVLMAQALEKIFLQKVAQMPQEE
- Protocol Notes: competitive AlphaLISA
- Assay type: binding
Write the number in µM without appending the unit.

Here's what some known entries look like.
Report measured IC50; entry is CC[C@@H](C(=O)OC(C)(C)C)[C@@H]1N=C(c2ccc(Cl)cc2)c2ccc(OC)cc2-n2c(C)nnc21 [Compound 25]
20

Report measured IC50; entry is C=CC[C@@H](C(=O)OC(C)(C)C)[C@@H]1N=C(c2ccc(Cl)cc2)c2ccc(OC)cc2-n2c(C)nnc21 [Compound 26]
3.16

Report measured IC50; entry is C=CC[C@@H](C(=O)NCC)[C@@H]1N=C(c2ccc(Cl)cc2)c2cc(OC)ccc2-n2c(C)nnc21 (relative stereo) [Compound 18]
31.6

Next, consider the following molecule.
Report measured IC50; entry is COC(=O)[C@H](C)[C@@H]1N=C(c2ccc(Cl)cc2)c2ccc(OC)cc2-n2c(C)nnc21 (racemic) [Compound 7]
1.58

====

IC50 values for the compounds below.
- Tgt: BRDT BD2 L/V (Homo sapiens, UniProt Q58F21, L306V)
- Protocol Notes: competitive AlphaLISA
- Format: binding
Write the number in µM without appending the unit.

Here's what some known entries look like.
Consider the compound `C=CC[C@@H](C(=O)OC(C)(C)C)[C@@H]1N=C(c2ccc(Cl)cc2)c2cc(OC)ccc2-n2c(C)nnc21` tested on BRDT BD2 L/V (Homo sapiens, UniProt Q58F21, L306V); state its IC50.
1.58

Consider the compound C=CC[C@@H](C(=O)OC)[C@@H]1N=C(c2ccc(Cl)cc2)c2ccc(OC)cc2-n2c(C)nnc21 (relative stereo) tested on BRDT BD2 L/V (Homo sapiens, UniProt Q58F21, L306V); state its IC50.
5.01

Consider the compound COC(=O)CC1N=C(c2ccc(Cl)cc2)c2ccc(OC)cc2-n2c(C)nnc21 (stereo not shown) tested on BRDT BD2 L/V (Homo sapiens, UniProt Q58F21, L306V); state its IC50.
3.16

Others:
Consider the compound CC[C@@H](C(=O)N(CC)CC)[C@@H]1N=C(c2ccc(Cl)cc2)c2cc(OC)ccc2-n2c(C)nnc21 (relative stereo) tested on BRDT BD2 L/V (Homo sapiens, UniProt Q58F21, L306V); state its IC50.
6.31

Consider the compound `CC[C@@H](C(=O)OC(C)(C)C)[C@@H]1N=C(c2ccc(Cl)cc2)c2cc(OC)ccc2-n2c(C)nnc21` tested on BRDT BD2 L/V (Homo sapiens, UniProt Q58F21, L306V); state its IC50.
2.51

Consider the compound CCNC(=O)[C@H](C)[C@@H]1N=C(c2ccc(Cl)cc2)c2ccc(OC)cc2-n2c(C)nnc21 (relative stereo) tested on BRDT BD2 L/V (Homo sapiens, UniProt Q58F21, L306V); state its IC50.
1.58

Consider the compound COC(=O)CC1N=C(c2ccc(Cl)cc2)c2cc(OC)ccc2-n2c(C)nnc21 (stereo not shown) tested on BRDT BD2 L/V (Homo sapiens, UniProt Q58F21, L306V); state its IC50.
1

====

- Tgt: BRDT BD1 L/V (Homo sapiens, UniProt Q58F21, L63V)
- Protocol Notes: competitive AlphaLISA
- Format: binding
Label class 1 when IC50 is strictly below 2 µM; at or above that, label class 0.

Determine if COC(=O)CC1N=C(c2ccc(Cl)cc2)c2ccc(OC)cc2-n2c(C)nnc21 (centres unmarked) [Compound 2] shows IC50 strictly lower than 2 µM.
class 1

Determine if CC[C@@H](C(=O)OC)[C@@H]1N=C(c2ccc(Cl)cc2)c2cc(OC)ccc2-n2c(C)nnc21 (relative stereo) [Compound 4] shows IC50 strictly lower than 2 µM.
class 1

Determine if CCC[C@@H](C(=O)OC)[C@@H]1N=C(c2ccc(Cl)cc2)c2cc(OC)ccc2-n2c(C)nnc21 (relative stereo) [Compound 6] shows IC50 strictly lower than 2 µM.
class 0

Determine if CCN(CC)C(=O)[C@H](C)[C@@H]1N=C(c2ccc(Cl)cc2)c2cc(OC)ccc2-n2c(C)nnc21 (relative stereo) [Compound 19] shows IC50 strictly lower than 2 µM.
class 0

Determine if CC[C@@H](C(=O)OC(C)(C)C)[C@@H]1N=C(c2ccc(Cl)cc2)c2cc(OC)ccc2-n2c(C)nnc21 [Compound 23] shows IC50 strictly lower than 2 µM.
class 0

Determine if C=CC[C@@H](C(=O)NCC)[C@@H]1N=C(c2ccc(Cl)cc2)c2cc(OC)ccc2-n2c(C)nnc21 (relative stereo) [Compound 18] shows IC50 strictly lower than 2 µM.
class 0

Others:
Determine if C=CC[C@@H](C(=O)OC)[C@@H]1N=C(c2ccc(Cl)cc2)c2ccc(OC)cc2-n2c(C)nnc21 (relative stereo) [Compound 9] shows IC50 strictly lower than 2 µM.
class 0

Determine if COC(=O)[C@H](C)[C@@H]1N=C(c2ccc(Cl)cc2)c2ccc(OC)cc2-n2c(C)nnc21 (racemic) [Compound 7] shows IC50 strictly lower than 2 µM.
class 1
